- Test system: Saccharomyces cerevisiae
- experimental details: protein stability index of tFT-peptide fusion (C-terminal peptide) (PSI (0-1 scale)); higher = more stable (slower turnover)
- experimental conditions: genetic background: das1 deletion; temperature: 30 C
Think of 0.4 as a floor: if protein stability index stands on it or above, it is 1; beneath it, -1.

Answered examples (3):
input: Given GYRRCCHFLFTL , state whether its protein stability index is at least 0.4.
output: 1

input: hey, is protein stability index for this one >= 0.4? FPSLLFALFLFI
output: 1

input: Can IVVWCGIRYSIR be said to have protein stability index at or above 0.4?
output: -1

Next up:
input: API: above_or_equal(metric=protein stability index, cutoff=0.4) for item TGGGGRVSLGVG
output: -1

====

- Tested on: Saccharomyces cerevisiae
- experimental details: protein stability index of tFT-peptide fusion (C-terminal peptide) (PSI (0-1 scale)); higher = more stable (slower turnover)
- experimental conditions: genetic background: wild type; temperature: 30 C
Entries and their measured protein stability index follow.
Output spec: single numeric token, no unit.

Field protein stability index (system: Saccharomyces cerevisiae) for entry HVCKLAMFQWYF = 0.302

Value (protein stability index, Saccharomyces cerevisiae) for record GLFFLCLLSMCF = 0.29

Note to self: protein stability index of RICACHGIRFIP with Saccharomyces cerevisiae was 0.392

Next:
protein stability index value, target or system Saccharomyces cerevisiae, for FVFCGVVFLFLL : 0.326

protein stability index of VLRFVYDLVSAL , assay on Saccharomyces cerevisiae, is 0.342

The value of protein stability index recorded for GCSVSLCCVFVV when tested on Saccharomyces cerevisiae reads 0.282

Response field protein stability index (Saccharomyces cerevisiae) for item FMCFVLPVFVLV : 0.212

Summary: RLRCRVLQWVWG , Saccharomyces cerevisiae, protein stability index = 0.385

Bench note, Saccharomyces cerevisiae: entry CRHCFVLLYFDY , its protein stability index = 0.318

The value of protein stability index recorded for HSRRRRPTPQSL when tested on Saccharomyces cerevisiae reads 0.64

Entry WSVCLLLLGRFC , Saccharomyces cerevisiae data, protein stability index value: 0.381

Tested on Saccharomyces cerevisiae, the item PSPRLSLPPRLP showed protein stability index equal to 0.686

protein stability index for Saccharomyces cerevisiae with input ALMTFTLVFTYM equals 0.173

// sequence SGRGFSFVLCTV , assay Saccharomyces cerevisiae, protein stability index value: 0.339

====

Item-by-item account of protein stability index
- System: Saccharomyces cerevisiae
- experimental details: protein stability index of tFT-peptide fusion (C-terminal peptide) (PSI (0-1 scale)); higher = more stable (slower turnover)
- experimental conditions: genetic background: wild type; temperature: 37 C

The reported protein stability index of the sequence RSFGGRPWVLFL was 0.255

Please find the next sequence below.
ISTRLALCACVC yielded protein stability index of 0.245

====

In this section we review reported protein stability index values for a set of sequences.
- System: Saccharomyces cerevisiae;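 further: PSI is a weighted mean of sequencing reads over stability bins, variants kept only with over 10 reads, mCherry proximal and sfGFP distal, peptide attached via GGGS linker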
- experimental details: protein stability index of tFT-peptide fusion (C-terminal peptide) (PSI (0-1 scale)); higher = more stable (slower turnover)
- experimental conditions: genetic background: das1 deletion; temperature: 30 C
Lab note: record just the number, no unit beside it.

Reported protein stability index of LPHIFFCLFSLL : 0.562

Entry CVCVVVCWRCGF , protein stability index reported as 0.306

The sequence listed as PLCLFPPLLVFL shows protein stability index equal to 0.411

Lab note: measured protein stability index of LCHILAIIRRGA was 0.596

For reference, reported protein stability index for QWRSWSFATLVT stands at 0.266

Per the records, this sequence ( WYMYVRMASFLV ) has protein stability index equal to 0.489

Continuing:
Query SLAPPPPLLILR yields protein stability index of 0.345

Lookup result for LLSGLVFVFVLG ; measured protein stability index: 0.238

Looking up YLYSSSPWILHG , I found its protein stability index recorded as 0.664

Field protein stability index (entry FFLSFICVMLCG ) reads 0.173

For QVVWAVPRICLV the sequence record lists protein stability index as 0.438

// WRCLHLVYLFFH : protein stability index value = 0.365

Notebook: DRTRLFLLLIIA , protein stability index read as 0.202

Notebook: YVSSCLLWLCFV , protein stability index read as 0.421

# protein stability index (sequence: SNFQLLPLFKNI ) is 0.651

Form field protein stability index, entry SYCFCCCVLFWG : 0.352

Record HRLQFKGYPICA . Reported protein stability index: 0.235

Consider DYARAWRTEVVC . Its measured protein stability index is 0.328

Lab note: RIFWMFFSQHIG gave protein stability index of 0.652

Sample CYVFLCGSFVFV ; protein stability index observed: 0.36

get_value(item= RNFSFTVICLAM , readout=protein stability index) returns 0.485

According to the records, this sequence PLPSRLRRFVPV displays protein stability index of 0.595

Documented protein stability index of NAGSHHAAVKLG : 0.641

Notebook: LFDYEAGEVMGG , protein stability index read as 0.661

Reported protein stability index for SFSFCCLLASFV was 0.484

Where do these numbers come from? They come from the supplement of paper PMC10724198.
